Reference for the values: ChEMBL document CHEMBL4513216

- Protocol: Toxicity liver stage against HepG2, at 10uM
- Type: cell-based
- Parameters: test concentration 10 uM, cell line HepG2-A16-CD81EGFP
- Test parameters: human, HepG2-A16-CD81EGFP cells; read-out: INHIBITION
Readout name: cytotoxicity at 10 µM (%)
Kindly answer with a numeric value in %, unit omitted.

Previously resolved entries follow.
>>> value_observed("CC(c1nccs1)N(C)Cc1ccc(CCC(C)(C)O)cc1 (centres undefined)")
2.55
>>> value_observed("CN(C)C(CNC(=O)c1nc(N2CCOCC2)ncc1Cl)c1ccco1 (centres undefined)")
7.96
>>> value_observed("O=S(=O)(c1ccc(F)cc1)N1CCN(CCCn2ccnc2)CC1")
-5.63
>>> value_observed("Cc1nccn1C1(C(=O)O)CCN(Cc2ccc3c(c2)OCCO3)CC1")
-1.53
>>> value_observed("CNC(=O)CCNC(=O)Nc1cccc(Cl)c1SC(F)F")
1.29
>>> value_observed("CCN(Cc1ccncc1)c1cc(C2CCCNC2)nc(C)n1 (centres undefined)")
-5.21

Lookup: Look up cytotoxicity at 10 µM for this compound: "Cc1[nH]c(-c2ccccc2)nc1C(=O)N1CCC(O)(CO)CC1"
Found: 1.1

Lookup: Same read-out for "CN(Cc1ccc(F)cc1)C(=O)NCc1nnc2n1CCC2" ?
Found: -17.8

Lookup: Please do the same for COc1ccc(F)cc1S(=O)(=O)NCC(c1cccn1C)N(C)C (centres undefined) as well.
Found: -20.7

Lookup: Would you kindly repeat that for CC(c1cccs1)N(C)C(=O)c1cc(CN(C)Cc2ccccc2)on1 (centres undefined) ?
Found: 5.44

Lookup: Then this compound: Cn1nc(C2CCNC2)c2c(C(=O)NCC(F)(F)F)cc(C3CC3)nc21 (centres undefined)
Found: 8.41

Lookup: And then O=C(O)CN1CCC(F)(F)C2(CCN(c3ccccc3)C2)C1 (centres undefined) , what is it?
Found: 10.7

Lookup: Can you handle "Cc1csc(N2CCN(Cc3ccccn3)CC2)n1" next?
Found: 6.14
